biological target: Jack bean urease (Canavalia ensiformis); test: biochemical; settings: Jack bean urease, 30 min at 37 °C, pH 8.2; mean (SEM); read-out: Urease Activity IC50 ± SEM
value-kind: IC50 (µM)
Write down the numeric answer in µM and omit the unit.

Recorded IC50 (compound NC(N)=S [Thiourea, reference compound] ): 4.74

====

Kindly supply the reported melting point values for the records listed here.

Recorded melting point (molecule O=C(NC(=S)NC12CC3CC(CC(C3)C1)C2)c1cc([N+](=O)[O-])cc([N+](=O)[O-])c1 [Compound 3i] ): 210 to 211 °C

Recorded melting point (molecule O=C(NC(=S)NC12CC3CC(CC(C3)C1)C2)c1ccc(Cl)cc1Cl [Compound 3b] ): 204 to 205 °C

Recorded melting point (molecule O=C(NC(=S)NC12CC3CC(CC(C3)C1)C2)c1ccc(F)cc1 [Compound 3a] ): 180 to 182 °C

Recorded melting point (molecule CCCC(=O)NC(=S)NC12CC3CC(CC(C3)C1)C2 [Compound 3c] ): 136 to 137 °C

Recorded melting point (molecule O=C(NC(=S)NC12CC3CC(CC(C3)C1)C2)c1ccccc1Cl [Compound 3g] ): 185 to 187 °C

====

biological target: Jack bean urease (Canavalia ensiformis, UniProt P07374); experiment: biochemical
Sequence (P07374 whole entry, looked up): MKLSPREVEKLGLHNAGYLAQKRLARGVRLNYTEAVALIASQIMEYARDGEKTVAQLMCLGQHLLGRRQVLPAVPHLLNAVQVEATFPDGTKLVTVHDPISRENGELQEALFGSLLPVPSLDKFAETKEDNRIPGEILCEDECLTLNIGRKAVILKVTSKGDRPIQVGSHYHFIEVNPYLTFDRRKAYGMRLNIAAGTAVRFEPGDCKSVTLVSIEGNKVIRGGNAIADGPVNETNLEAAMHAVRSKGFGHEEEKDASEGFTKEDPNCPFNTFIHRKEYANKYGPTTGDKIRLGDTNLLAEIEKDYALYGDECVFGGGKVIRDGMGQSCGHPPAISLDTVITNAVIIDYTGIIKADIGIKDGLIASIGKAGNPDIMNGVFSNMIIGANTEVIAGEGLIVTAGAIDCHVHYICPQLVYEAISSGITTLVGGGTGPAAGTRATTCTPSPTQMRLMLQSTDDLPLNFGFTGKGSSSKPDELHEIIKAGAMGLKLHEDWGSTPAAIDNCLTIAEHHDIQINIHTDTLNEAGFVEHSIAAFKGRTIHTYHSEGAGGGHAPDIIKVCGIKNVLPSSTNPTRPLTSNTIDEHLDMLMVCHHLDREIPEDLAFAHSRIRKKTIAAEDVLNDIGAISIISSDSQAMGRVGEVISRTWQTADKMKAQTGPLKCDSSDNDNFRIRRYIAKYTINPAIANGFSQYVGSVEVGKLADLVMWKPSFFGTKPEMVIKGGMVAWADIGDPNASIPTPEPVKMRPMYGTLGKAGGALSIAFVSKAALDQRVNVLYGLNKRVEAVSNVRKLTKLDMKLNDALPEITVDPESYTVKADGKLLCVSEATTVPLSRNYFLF
Kindly supply the reported IC50 values for the records listed here.
Write down the numeric answer in nM and omit the unit.

Test item CCCCCCC(=O)NC(=S)NC12CC3CC(CC(C3)C1)C2 [Compound 3h] ; Jack bean urease (Canavalia ensiformis, UniProt P07374); reported IC50 was 10

Test item COc1ccc(C(=O)NC(=S)NC23CC4CC(CC(C4)C2)C3)cc1 [Compound 3d] ; Jack bean urease (Canavalia ensiformis, UniProt P07374); reported IC50 was 20

Test item O=C(NC(=S)NC12CC3CC(CC(C3)C1)C2)c1ccc(Cl)cc1Cl [Compound 3b] ; Jack bean urease (Canavalia ensiformis, UniProt P07374); reported IC50 was 10

Test item O=C(NC(=S)NC12CC3CC(CC(C3)C1)C2)c1cc([N+](=O)[O-])cc([N+](=O)[O-])c1 [Compound 3i] ; Jack bean urease (Canavalia ensiformis, UniProt P07374); reported IC50 was 10

Test item O=C(NC(=S)NC12CC3CC(CC(C3)C1)C2)c1ccc(Cl)cc1 [Compound 3e] ; Jack bean urease (Canavalia ensiformis, UniProt P07374); reported IC50 was 30

Test item CCCC(=O)NC(=S)NC12CC3CC(CC(C3)C1)C2 [Compound 3c] ; Jack bean urease (Canavalia ensiformis, UniProt P07374); reported IC50 was 30

Test item O=C(NC(=S)NC12CC3CC(CC(C3)C1)C2)c1ccccc1Cl [Compound 3g] ; Jack bean urease (Canavalia ensiformis, UniProt P07374); reported IC50 was 8.7

Test item O=C(NC(=S)NC12CC3CC(CC(C3)C1)C2)c1ccc(F)cc1 [Compound 3a] ; Jack bean urease (Canavalia ensiformis, UniProt P07374); reported IC50 was 10

Test item CCCCC(=O)NC(=S)NC12CC3CC(CC(C3)C1)C2 [Compound 3f] ; Jack bean urease (Canavalia ensiformis, UniProt P07374); reported IC50 was 30

====

value-kind: melting point

Recorded melting point (compound `CCCCC(=O)NC(=S)NC12CC3CC(CC(C3)C1)C2` ): 141 to 142 °C

Recorded melting point (compound `CCCCCCCC(=O)NC(=S)NC12CC3CC(CC(C3)C1)C2` ): 158 to 159 °C

Recorded melting point (compound `COc1ccc(C(=O)NC(=S)NC23CC4CC(CC(C4)C2)C3)cc1` ): 178 to 179 °C

Recorded melting point (compound `O=C(NC(=S)NC12CC3CC(CC(C3)C1)C2)c1ccc(Cl)cc1` ): 182 to 183 °C

Recorded melting point (compound `CCCCCCC(=O)NC(=S)NC12CC3CC(CC(C3)C1)C2` ): 149 to 151 °C

====

value-kind: pKi
Please report pKi as the negative decimal logarithm of the molar concentration, giving only the number.

Test item `CCCCCCCC(=O)NC(=S)NC12CC3CC(CC(C3)C1)C2` ; Jack bean urease (Canavalia ensiformis); reported pKi was 8.15
